tested on: SR leukemia; assay: NCI-60 one-dose screen, 48 h (100 = growth as untreated, 0 = no growth, -100 = all killed); conditions: 10 µM
About 83,000 compounds went through this panel and 20% of them were active in at least one assay; those are over-represented in the sample as a whole.
Collected growth values appear next to each entry.
property measured: growth (%)

molecule=CSc1nc(=O)n(Cc2ccc(Cl)cc2)c(=O)[nH]1 target_system="SR leukemia" result_value=95.5
molecule=CN1CCC(CNc2cc(C3(C(=O)Nc4cc(C(=O)Nc5ccc(Cl)c(C(F)(F)F)c5)ccc4F)CC3)ncn2)CC1 target_system="SR leukemia" result_value=-26.7
molecule=Cc1cc(=O)[nH]c(N/N=C/c2ccccc2O)n1 target_system="SR leukemia" result_value=26.8
molecule="COc1ccc(OC)c2c1C(=O)CC2C (stereo not drawn)" target_system="SR leukemia" result_value=113
molecule="COc1ccc2c(c1)N(CCO)C1=C(C(=O)OC1)C2c1cc(OC)c(OC)c(OC)c1 (stereo not drawn)" target_system="SR leukemia" result_value=23.5
molecule=CCCCCCCCN(CCCCCCCC)CCCCCCCCCN1CCCc2cc(OC)ccc21 target_system="SR leukemia" result_value=77.5
molecule=O=C(C[P+](c1ccccc1)(c1ccccc1)c1ccccc1)C[P+](c1ccccc1)(c1ccccc1)c1ccccc1 target_system="SR leukemia" result_value=-19.6
molecule="CC(=O)N1N=C(c2ccc(Cl)cc2)CC1c1sc(Cl)nc1Cl (stereo not drawn)" target_system="SR leukemia" result_value=58.5
molecule=COc1cc(Nc2ncnc(Nc3ccc4c(n3)NC(=O)C(C)(C)O4)n2)cc(OC)c1OC target_system="SR leukemia" result_value=9.18
molecule=COc1ccc(-c2nn(-c3cccc(NC(=O)c4cccc(C(F)(F)F)c4)c3)cc2-c2ccncc2)cc1Cl target_system="SR leukemia" result_value=4.46
molecule=COc1cc(NC(=O)CCSc2nc3ccc(C)cc3c(=O)n2Cc2ccccc2)cc(OC)c1OC target_system="SR leukemia" result_value=95.3
molecule=N#Cc1cc(-c2cc3ccccc3o2)oc1N target_system="SR leukemia" result_value=-23.5
molecule=COc1cccc(C(=O)Nc2ccc(CN3CCc4nc5cc(OC)c(OC)cc5cc43)cc2)c1 target_system="SR leukemia" result_value=24.1

====

Collected growth values appear next to each entry.
system: SK-OV-3 ovarian; assay: NCI-60 one-dose screen, 48 h (100 = growth as untreated, 0 = no growth, -100 = all killed); details: 10 µM
About 83,000 compounds went through this panel and 20% of them were active in at least one assay; those are over-represented in the sample as a whole.
property measured: growth (%)

molecule=COc1cc2cc3c(nc2cc1OC)CCN3Cc1ccc(NC(=O)c2ccc(Cl)c(C(F)(F)F)c2)cc1 result_value=91.7
molecule=Nc1nc(-c2ccccc2Cl)cc(-c2ccc(Cl)cc2Cl)n1 result_value=93
molecule=COc1ccc(Nc2nc3ccc(NC(=O)NC4CCCCC4)cc3[nH]c2=O)cc1 result_value=96.1
molecule=COc1cc(Nc2ccnc(NCCCNc3ccnc4cc(Cl)ccc34)n2)cc(OC)c1 result_value=14.7
molecule=COc1ccc(-c2cc(-c3cccc(NS(C)(=O)=O)c3)nc(N)c2C#N)cc1 result_value=20.3
molecule=Clc1ccccc1N=Cc1ccc2c(c1)OCO2 result_value=108
molecule=COc1ccc(-c2nc(-c3nc4ccc(OC)cc4[nH]3)cc3c2[nH]c2ccccc23)cc1 result_value=99.2
molecule="CCOC(=O)C(NC(=O)C(Cl)Cl)C(O)c1ccccc1 (stereo not drawn)" result_value=116
molecule=COc1cc(-c2cc(/C=C/C(=O)c3ccc(F)c(F)c3)[nH]n2)cc(OC)c1OC result_value=90
molecule=O=C(N/N=C/c1cc2ccccc2c2ccccc12)c1cc(O)c(O)c(O)c1 result_value=78.8
molecule="O=C1OCC2=C1C(c1cccc(Br)c1)c1cc3c(cc1N2CCO)CCC3 (stereo not drawn)" result_value=28.8
molecule=Cc1ccc(NC(=O)Nc2nc3ccccc3s2)cc1NC(=O)Nc1nc2ccccc2s1 result_value=95.8
molecule=CCCCOC(=O)Oc1ccc(C(=O)Oc2ccc(OCC)cc2)cc1 result_value=111
molecule=COc1cc2nc(Nc3cccc(NC(C)=O)c3)nc(N)c2cc1OC result_value=118
molecule=C(CCCC1=NCCO1)CCCC1=NCCO1 result_value=105
molecule=c1ccc2c(c1)oc1c3c(ccc12)NCCC3 result_value=107
molecule=CN(C)c1ccc(N=C2C=CC(=O)c3ccccc32)cc1 result_value=95.4
molecule=N#Cc1ncc(-c2cc(F)c(F)c(F)c2)c(NC2CCCCCC2)n1 result_value=88.3

====

test system: SN12C renal; assay: NCI-60 one-dose screen, 48 h; details: 10 µM
This is part of a sample that, as a whole, favours compounds with a hit. Of some 83,000 tested, about 20% had one in any assay. The source made the active and inactive calls. Rule for the calls: active = growth percent below 10; inactive = the rest.
Outcomes: active, inactive

compound=CC(=O)OCc1cc(-c2nc3ccccc3[nH]c2=O)nn1-c1ccc(Cl)cc1 target_system="SN12C renal" label_class=inactive
compound=O=C(CSSCC(=O)c1ccc(Cl)cc1)c1ccc(Cl)cc1 target_system="SN12C renal" label_class=inactive
compound=COc1ccc(Nc2nc3ccc(NC(=O)NC4CCCCC4)cc3[nH]c2=O)cc1 target_system="SN12C renal" label_class=inactive
compound=CC(=O)O[C@]1(C)CC[C@H]2[C@H](CNCCc3ccc(Cl)cc3)C(=O)O[C@@H]2C2=C(C)C(=O)C[C@H]21 target_system="SN12C renal" label_class=inactive
compound=COc1cc(C)ccc1C(=O)c1ccc(C)cc1OC target_system="SN12C renal" label_class=inactive
compound=COc1cccc(-c2cc(-c3cccc(NS(C)(=O)=O)c3)nc(N)c2C#N)c1O target_system="SN12C renal" label_class=inactive
compound=C/C(=N\Nc1nc2ccccc2s1)c1ccncn1 target_system="SN12C renal" label_class=inactive
compound=O=C(/C(=C/c1ccccc1)CN1CCCCC1)c1ccccc1 target_system="SN12C renal" label_class=active
compound=COc1ccc(-c2nc3ncccn3c2-c2nnc(-c3ccc(F)cc3)o2)cc1 target_system="SN12C renal" label_class=inactive
compound="Nc1c(C(=O)Nc2cccc(Br)c2)sc2nc3c(cc12)C(O)CCC3 (centres undefined)" target_system="SN12C renal" label_class=inactive
compound=O=C(Nc1nc(-c2ccccc2Cl)cs1)c1cc(-c2ccc(Cl)cc2)nc2ccc(Cl)cc12 target_system="SN12C renal" label_class=inactive
compound=COC(=O)C1=NNC(=S)N(c2cc(C)[nH]n2)C(=O)C1 target_system="SN12C renal" label_class=inactive
compound=COc1ccc(-c2nc3sc(-c4ccccc4)c(-c4ccccc4)n3c2/C=C/C(=O)c2ccccn2)cc1 target_system="SN12C renal" label_class=inactive
compound=COc1ccc(Nc2cc(C)nc(NCCCNc3ccnc4cc(Cl)ccc34)n2)cc1 target_system="SN12C renal" label_class=active
compound=Cc1ccc(C(=O)N2C/C(=C/c3ccc(F)cc3)C(=O)/C(=C/c3ccc(F)cc3)C2)cc1 target_system="SN12C renal" label_class=inactive
compound="CC1(O)CCC2CC3OC3(C)CCC3OC3(C)CCC1C2(C)C (centres undefined)" target_system="SN12C renal" label_class=inactive
compound=O=C(O)CCCCSc1ncnc2nc[nH]c12 target_system="SN12C renal" label_class=inactive
compound=Cn1c(C(N)=O)cc2c1-c1nc(Nc3ccccc3)ncc1CCC2 target_system="SN12C renal" label_class=inactive
compound=CCCC#CCN(CC)CC target_system="SN12C renal" label_class=inactive
compound=CN(C)CCN1C(=O)c2cccc3c(-c4ccc5ncn(C6CCCCC6)c5c4)ccc(c23)C1=O target_system="SN12C renal" label_class=inactive
compound=Cc1ncc(-c2ccoc2)c(NC2CCCCCC2)n1 target_system="SN12C renal" label_class=inactive
compound=Clc1ccc(Sc2nc(NC3CC3)nc(Sc3ccc(Cl)cc3)n2)cc1 target_system="SN12C renal" label_class=inactive
compound=CC(=O)n1c(-c2ccc(Cl)c(Cl)c2)cn(-c2ccc(Cl)cc2)c1=O target_system="SN12C renal" label_class=inactive
compound=N#Cc1c(C#N)c(SSc2c(C#N)c(C#N)c(N)n2-c2ccccc2)n(-c2ccccc2)c1N target_system="SN12C renal" label_class=inactive
compound="O=C1C(c2ccccc2)C2C=CC(C2)N1O (centres undefined)" target_system="SN12C renal" label_class=inactive
compound=Cc1cc(=O)[nH]c(N/N=C/c2ccccc2O)n1 target_system="SN12C renal" label_class=inactive
compound=COc1cc(NC(=O)CCSc2nc3ccc(Cl)cc3c(=O)n2Cc2ccccc2)cc(OC)c1OC target_system="SN12C renal" label_class=inactive
compound="N#CSCC1CC(O)(c2ccccc2)CC(c2ccc(Cl)cc2)O1 (centres undefined)" target_system="SN12C renal" label_class=inactive
compound=COc1ccc(-c2cc(/C=C3\C(=O)Nc4ccc(OC)cc43)[nH]n2)cc1 target_system="SN12C renal" label_class=inactive

Provenance of the data: PubChem BioAssay (NCI)
